Assay read-out IC50 on cGMP-inhibited 3',5'-cyclic phosphodiesterase 3A (Homo sapiens); records merged from the literature.
Sequence (Q14432 whole entry): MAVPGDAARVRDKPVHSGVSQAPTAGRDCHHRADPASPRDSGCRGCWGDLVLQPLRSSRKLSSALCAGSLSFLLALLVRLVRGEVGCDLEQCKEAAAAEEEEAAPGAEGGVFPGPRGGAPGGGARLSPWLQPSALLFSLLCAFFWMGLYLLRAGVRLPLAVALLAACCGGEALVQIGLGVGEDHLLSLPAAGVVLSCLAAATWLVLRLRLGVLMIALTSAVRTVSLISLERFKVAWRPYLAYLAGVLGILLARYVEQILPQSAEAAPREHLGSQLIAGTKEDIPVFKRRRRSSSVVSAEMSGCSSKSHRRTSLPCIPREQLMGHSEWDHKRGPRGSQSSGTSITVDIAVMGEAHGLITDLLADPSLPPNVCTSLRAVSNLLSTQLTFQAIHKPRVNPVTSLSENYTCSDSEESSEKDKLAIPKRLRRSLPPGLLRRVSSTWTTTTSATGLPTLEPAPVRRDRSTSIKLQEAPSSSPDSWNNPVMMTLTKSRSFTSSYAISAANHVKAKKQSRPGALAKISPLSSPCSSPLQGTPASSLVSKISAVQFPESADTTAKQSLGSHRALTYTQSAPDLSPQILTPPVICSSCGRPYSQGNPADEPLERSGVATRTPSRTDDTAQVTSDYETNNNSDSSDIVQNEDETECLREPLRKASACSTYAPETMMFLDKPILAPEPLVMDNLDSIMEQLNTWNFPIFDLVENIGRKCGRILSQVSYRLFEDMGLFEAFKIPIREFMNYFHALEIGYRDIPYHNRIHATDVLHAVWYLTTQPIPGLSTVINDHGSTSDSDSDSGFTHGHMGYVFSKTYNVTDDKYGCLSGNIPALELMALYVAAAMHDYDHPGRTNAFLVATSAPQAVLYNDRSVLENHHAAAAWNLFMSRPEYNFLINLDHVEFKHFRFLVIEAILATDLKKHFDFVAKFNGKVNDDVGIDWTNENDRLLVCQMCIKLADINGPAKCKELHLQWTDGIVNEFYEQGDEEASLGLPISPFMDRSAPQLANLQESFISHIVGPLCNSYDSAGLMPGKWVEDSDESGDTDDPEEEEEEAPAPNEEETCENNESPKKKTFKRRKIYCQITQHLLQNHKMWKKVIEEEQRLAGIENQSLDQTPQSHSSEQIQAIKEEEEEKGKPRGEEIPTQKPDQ
assay.metric: IC50 (µM)

Below: 5 compounds and their reported IC50.
COc1ccc2c(OC)cc(C(=O)Nc3cccc(B(O)O)c3)nc2c1 :: 12.6
COc1ccc2c(OC)cc(C(=O)Nc3cc(B(O)O)cc(C(=O)N[C@@H]4CCCOC4)c3)nc2c1 :: 63.1
CNC(=O)[C@@H](NC(=O)c1cc(NC(=O)c2nccc3ccccc23)cc(B(O)O)c1)C1CCCCC1 :: 0.398
CNC(=O)[C@@H](C)NC(=O)c1cc(NC(=O)c2cc(OC)c3ccc(OC)cc3n2)cc(B(O)O)c1 :: 25.1
O=C1NN=C(c2ccc(N3CCOCC3)c(F)c2)CO1 :: 0.18

1 = COc1ccc2c(OC)cc(C(=O)Nc3cc(B(O)O)cc(C(=O)N(C)C)c3)nc2c1
2 = COc1ccc2c(OC)cc(C(=O)Nc3cc(B(O)O)cc(C(=O)NC(C)C)c3)nc2c1
3 = CNC(=O)[C@H](NC(=O)c1cc(NC(=O)C(C)Oc2c(C)cccc2C)cc(B(O)O)c1)C1CCCCC1 (some centres undefined)
4 = C[C@@H]1CC(=O)NN=C1c1ccc(N2CCOCC2)c(F)c1
5 = COc1ccc2c(OC)cc(C(=O)Nc3cc(B(O)O)cc(C(=O)O)c3)nc2c1
Please put the entries in order of rising IC50. Thanks in advance for listing the labels in the requested order. 4, 5, 2, 1, 3

1 = C[C@@H]1OC(=O)NN=C1c1ccc(-c2ccc(O)cc2)c(C(F)(F)F)c1
2 = Cn1c(=O)[nH]c(=O)c2cc(S(=O)(=O)Nc3ccc(-c4ccccc4)cc3)ccc21
// max by IC50 over [ 1 , 2 ] Pick one; state its label. 2

A = CNC(=O)[C@H](NC(=O)c1cc(NC(=O)c2nc(C)ncc2OC)cc(B(O)O)c1)C1CCCCC1
B = CNC(=O)[C@@H](NC(=O)c1cc(NC(=O)c2ccc3cc(OC)ccc3n2)cc(B(O)O)c1)C1CCCCC1
C = CNC(=O)[C@H](NC(=O)c1cc(NC(=O)c2cc(OC)c3ccc(OC)cc3n2)cc(B(O)O)c1)C1CCCCC1
D = CNC(=O)[C@H](NC(=O)c1cc(NC(=O)c2cc(Cl)cc3c2OCC(=O)N3)cc(B(O)O)c1)C1CCCCC1
E = O=C1CCc2cc(OCCCCc3nnnn3C3CCCCC3)ccc2N1
Highest IC50 first, then in falling order down to the smallest. Thanks in advance for listing the labels in the requested order. A, C, D, B, E

====

pIC50: −log10 of the molar value.
Assay read-out pIC50 on cGMP-inhibited 3',5'-cyclic phosphodiesterase 3A (Homo sapiens); records merged from the literature.
assay.metric: pIC50

C[C@@H]1OC(=O)NN=C1c1ccc(-n2cc(C(F)(F)F)cn2)c(C(F)(F)F)c1 :: 6.22

a = CNC(=O)[C@@H](NC(=O)c1cc(NC(=O)c2cc(C)c3c(=O)[nH]c(=O)[nH]c3n2)cc(B(O)O)c1)C1CCCCC1
b = CNC(=O)[C@@H](NC(=O)c1cc(NC(=O)c2ccc3cccnc3n2)cc(B(O)O)c1)C1CCCCC1
c = O=c1[nH]c(=O)c2cc(S(=O)(=O)Nc3ccc(N4CCCCCC4)cc3)ccc2[nH]1
Highest pIC50 first, then in falling order down to the smallest. Thanks in advance for listing the labels in the requested order. b, c, a

====

pIC50: −log10 of the molar value.
Assay read-out pIC50 on UniProt:Q14432; records merged from the literature.
assay.metric: pIC50

COc1ccc2c(OC)cc(C(=O)Nc3cc(B(O)O)cc(C(=O)N(C)Cc4ccccc4)c3)nc2c1 :: 4.80
COc1ccc2c(OC)cc(C(=O)Nc3cc(B(O)O)cc(C(=O)N[C@@H](C(N)=O)C(C)C)c3)nc2c1 :: 4.80
COc1ccc2c(OC)cc(C(=O)Nc3cc(B(O)O)cc(C(=O)N4CCCC4)c3)nc2c1 :: 4.50

I = C[C@@H]1CC(=O)NN=C1c1cc(F)c(N2CCOCC2)c(F)c1
II = CNC(=O)[C@H](NC(=O)c1cc(NC(=O)c2cc(C)cc(C)c2OC)cc(B(O)O)c1)C1CCCCC1
III = O=C1NN=C(c2ccc(-c3ccc(F)cc3)c(F)c2)CO1
IV = O=c1[nH]c(=O)c2cc(S(=O)(=O)Nc3ccc(-c4ccccc4)cc3)ccc2[nH]1
Highest pIC50 first, then in falling order down to the smallest. Thanks in advance for listing the labels in the requested order. I, III, II, IV
